Exercise: state measured melting point for each of the compounds provided.

| Compound smiles | melting point |
| --- | --- |
| Nc1c(-c2nc3ccccc3[nH]2)nnc2cc(-c3ccccc3-c3ccccc3)nn12 | > 250 °C |

Look at each compound and report its melting point.
1. CCc1nn2c(N)c(-c3nc4ccccc4[nH]3)nnc2c1Br
2. Nc1c(-c2nc3ccccc3[nH]2)nnc2cc(C=O)nn12
3. CC(C)(C)[Si](OCc1cc2nnc(-c3nc4ccccc4[nH]3)c(N)n2n1)(c1ccccc1)c1ccccc1

1. > 250 °C
2. > 250 °C
3. 233.5 to 234 °C

Per the record, CCc1nn2c(N)c(C#N)nnc2c1-c1ccc(F)cc1 has melting point of > 215 °C (dec.)

----------
Parameter pIC50, tested on FEN1 (Homo sapiens, UniProt P39748), listed per item.
Sequence (P39748 whole entry, species assumed): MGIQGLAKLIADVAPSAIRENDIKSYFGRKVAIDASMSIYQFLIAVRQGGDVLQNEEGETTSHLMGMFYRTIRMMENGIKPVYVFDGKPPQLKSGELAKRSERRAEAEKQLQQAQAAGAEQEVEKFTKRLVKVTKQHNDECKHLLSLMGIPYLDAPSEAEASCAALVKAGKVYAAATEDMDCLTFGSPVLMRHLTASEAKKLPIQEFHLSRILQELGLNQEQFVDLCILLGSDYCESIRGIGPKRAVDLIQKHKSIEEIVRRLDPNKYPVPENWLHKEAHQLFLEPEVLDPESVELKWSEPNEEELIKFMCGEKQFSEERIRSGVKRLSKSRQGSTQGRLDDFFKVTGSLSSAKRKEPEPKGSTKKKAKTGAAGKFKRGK
pIC50: −log10 of the molar value.

Example results:
| Compound smiles | pIC50 |
| --- | --- |
| CCc1nn2c(N)c(-c3nc4ccccc4[nH]3)nnc2c1-c1ccc(F)cc1 | < 4.30 |
| Nc1c(-c2nc3ccccc3[nH]2)nnc2cc(-c3cccc4ccccc34)nn12 | < 4.30 |

Would you kindly look at the next entry?
According to the records, this compound Nc1c(-c2nc3ccccc3[nH]2)nnc2cc(-c3ccccc3)nn12 displays pIC50 of < 4.30

----------
Target desc: MUS81/EME1 (Homo sapiens, UniProt Q96NY9)
Sequence (Q96NY9 whole entry, species assumed): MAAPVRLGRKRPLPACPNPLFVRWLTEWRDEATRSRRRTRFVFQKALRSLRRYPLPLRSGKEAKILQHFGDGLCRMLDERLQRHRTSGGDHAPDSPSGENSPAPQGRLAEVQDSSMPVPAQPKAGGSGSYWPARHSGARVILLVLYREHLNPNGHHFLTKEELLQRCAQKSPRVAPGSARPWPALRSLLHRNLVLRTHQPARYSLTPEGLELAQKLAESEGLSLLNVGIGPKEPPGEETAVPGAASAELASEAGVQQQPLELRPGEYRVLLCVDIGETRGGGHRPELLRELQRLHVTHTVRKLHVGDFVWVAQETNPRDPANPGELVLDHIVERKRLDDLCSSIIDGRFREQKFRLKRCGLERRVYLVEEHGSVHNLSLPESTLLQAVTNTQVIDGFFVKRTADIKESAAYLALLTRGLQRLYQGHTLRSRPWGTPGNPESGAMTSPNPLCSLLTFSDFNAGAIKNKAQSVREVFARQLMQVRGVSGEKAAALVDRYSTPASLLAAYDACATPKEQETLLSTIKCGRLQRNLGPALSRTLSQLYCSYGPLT
Sequence (Q96AY2 whole entry partner, species assumed): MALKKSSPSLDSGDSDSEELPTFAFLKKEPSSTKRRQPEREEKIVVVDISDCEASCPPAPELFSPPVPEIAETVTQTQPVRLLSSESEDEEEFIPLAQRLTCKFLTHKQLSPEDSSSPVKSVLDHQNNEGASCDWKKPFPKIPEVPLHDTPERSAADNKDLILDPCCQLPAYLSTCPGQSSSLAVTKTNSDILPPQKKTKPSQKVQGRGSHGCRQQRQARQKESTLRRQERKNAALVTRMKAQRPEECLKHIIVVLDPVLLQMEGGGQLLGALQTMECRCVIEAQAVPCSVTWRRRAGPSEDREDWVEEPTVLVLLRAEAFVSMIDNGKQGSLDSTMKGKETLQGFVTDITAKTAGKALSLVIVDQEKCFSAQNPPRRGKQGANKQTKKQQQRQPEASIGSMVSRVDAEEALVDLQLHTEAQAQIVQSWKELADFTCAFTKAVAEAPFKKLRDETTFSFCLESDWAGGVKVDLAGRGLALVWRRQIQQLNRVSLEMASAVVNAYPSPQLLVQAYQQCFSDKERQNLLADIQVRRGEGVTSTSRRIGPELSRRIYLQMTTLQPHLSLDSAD
Method notes: Nuclease inhibition assay, MUS81/EME1 (3′ flap fluorescent DNA substrate, gel readout)
Condition set: 5 nM enzyme, 5 nM 3′ flap substrate, 15 min at 30° C.
Parameter: IC50

| Compound | IC50 |
| --- | --- |
| Nc1c(-c2nc3ccccc3[nH]2)nnc2cc(CO)nn12 | > 50 µM |
| Cn1ccc(-c2cnn3c(O)c(-c4nc5ccccc5[nH]4)nnc23)n1 [Preparative Example 18B] | < 50 µM |
| CCc1nn2c(N)c(-c3nc4ccccc4[nH]3)nnc2c1-c1ccc(F)cc1 | < 10 µM |
| Oc1c(-c2nc3ccccc3n2Cc2ccccc2)nnc2c(-c3ccncc3)cnn12 [Preparative Example 17D] | < 10 µM |
| Oc1c(-c2nc3ccccc3n2Cc2ccccc2)nnc2c(-c3ccsc3)cnn12 [Preparative Example 17C] | < 50 µM |

Hey, quick one: what's IC50 for each of these?
1. CC(C)c1nn2c(N)c(-c3nc4ccccc4[nH]3)nnc2c1-c1ccc(F)cc1
2. CCc1nn2c(O)c(-c3nc4cc(C)c(C)cc4[nH]3)nnc2c1-c1ccc(F)cc1
3. CCc1nn2c(N)c(-c3nc4ccccc4n3Cc3ccccc3)nnc2c1-c1ccc(F)cc1

["< 50 µM", "< 10 µM", "< 50 µM"]

----------
I'd be grateful if you could share measured pIC50 for these entries.
Target desc: MUS81/EME1 (Homo sapiens)
Method notes: Nuclease inhibition assay, MUS81/EME1 (3′ flap fluorescent DNA substrate, gel readout)
Type: biochemical
Condition set: 5 nM enzyme, 5 nM 3′ flap substrate, 15 min at 30° C.
pIC50: −log10 of the molar value.

The examples below pair each entry with its known result.
| Compound | pIC50 |
| --- | --- |
| CCc1cc2nnc(-c3nc4ccccc4[nH]3)c(N)n2n1 | > 4.30 |
| CCc1nn2c(N)c(C#N)nnc2c1-c1ccc(F)cc1 | < 4.30 |
| CCc1nn2c(N)c(-c3nc4ccccc4[nH]3)nnc2c1-c1cccc(C(=O)OC)c1 | > 5.00 |
| CS(=O)(=O)c1ccc(-c2cnn3c(O)c(-c4nc5ccccc5n4Cc4ccccc4)nnc23)cc1 [Preparative Example 17A] | > 5.00 |

Could you tell me pIC50 for each of these compounds? They are listed below.
1. Nc1c(-c2nc3ccccc3[nH]2)nnc2ccnn12
2. CS(=O)(=O)c1ccc(-c2cnn3c(O)c(-c4nc5ccccc5[nH]4)nnc23)cc1 [Preparative Example 18A]
3. CCc1nn2c(N)c(C(N)=O)nnc2c1-c1ccc(F)cc1
4. O=[N+]([O-])c1ccc(-c2cnn3c(O)c(-c4nc5ccccc5n4Cc4ccccc4)nnc23)cc1 [Preparative Example 17B]

< 4.30
> 5.00
< 4.30
> 5.00
